tested on: Bombyx mori; experiment: Insecticidal activity against po dosed third-instar larvae of Bombyx mori assessed as gram of diet; type: functional
Some compounds, each annotated with its measured LD50.
experimental_readout: LD50 (mg/kg)

INSERT INTO measurements (smi, experimental_readout, recorded_value) VALUES
  ('C/C=C/C=C/C(=O)N1CC[C@@]23c4ccccc4N[C@@H]4N(C)c5cccc6c5[C@@]42CCN([C@@H]13)[C@@H]6[C@H]1OC1(C)C', 'LD50', 5),
  ('CC(=O)N1CC[C@@]23c4ccccc4N[C@@H]4N(C)c5cccc6c5[C@@]42CCN([C@@H]6C=C(C)C)[C@@H]13', 'LD50', 80),
  ('CC(=O)N1CC[C@@]23c4ccccc4N[C@@H]4N(C)c5cccc6c5[C@@]42CCN([C@@H]13)[C@@H]6[C@H]1OC1(C)C', 'LD50', 150),
  ('C/C=C/C=C/C(=O)N1CC[C@@]23c4ccccc4N[C@@H]4Nc5cccc6c5[C@@]42CCN([C@@H]13)[C@@H]6[C@H]1OC1(C)C', 'LD50', 300),
  ('C/C=C/C=C/C(=O)N1CC[C@@]23c4ccccc4N[C@@H]4N(C=O)c5cccc6c5[C@@]42CCN([C@@H]13)[C@@H]6[C@H]1OC1(C)C', 'LD50', 80);
